FYI, the data here is from the supplement of paper PMC12042874.

# EXPERIMENT_DESCRIPTION: amyloid nucleation score (Sup35N fusion, yeast selection) (log enrichment); library NNK2; higher = more nucleation; inactive = no reads after selection;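 further: zero at mode of non-aggregating sequences after 7 days selection at 30°C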
MEASUREMENT_NAME: amyloid nucleation score
// print number alone

Sample records with amyloid nucleation score:
CONSTRUCT_SEQUENCE: YMHILLLRFVQILTIRIVLL
amyloid nucleation score: -0.85
--
CONSTRUCT_SEQUENCE: CHTTMPGIVCKLGTYARGEG
amyloid nucleation score: 6.64
--
CONSTRUCT_SEQUENCE: FSVRLMAVRQGRLTAVGKSD
amyloid nucleation score: 0.331

Incoming: Entry VDCCSFSLWVVW has what amyloid nucleation score?
Outgoing: 3.98

Incoming: Entry CTYHAQVFTFDHPGRSTRYS please
Outgoing: -0.274
